Origin of values: PubChem BioAssay

- Tested on: Sonic hedgehog protein (Shh)
- PROTOCOL DESCRIPTION: small-molecule binders of Shh protein, primary screen, biochemical, small-molecule microarray, 635/667 nm fluorescence (AID 1151);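 note: Shh protein binding to compounds spotted on small-molecule microarray slides; score combines spot fluorescence intensity with signal-to-noise across triplicate slides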
- MEASUREMENT SETUP: small-molecule microarray binding, 635 nm fluorescence; higher = more signal
Each entry gets no (0) if its composite z-score stays under 1, and yes (1) if its composite z-score is 1 or above.

Q: composite z-score >= 1 for `CN(C)C(=O)[C@@]1(Cc2ccccc2)N=C(c2ccc(OCCCO)cc2)O[C@H]1c1ccccc1N=[N+]=[N-]` ?
Result: no (0)

Q: composite z-score >= 1 for CCCCN1CC=CC23O[C@@H]4/C=C\CCC(C)OC(=O)C4[C@H]2C(=O)N(CCCCCO)[C@@H]3C1=O (stereo partly drawn) ?
Result: no (0)

Q: composite z-score >= 1 for C=C(C)C1C(=C)CN([C@H](CO)c2ccccc2)C1=O (stereo partly drawn) ?
Result: yes (1)

Q: composite z-score >= 1 for COc1ccc(C(O)C2C=CC3C(=O)N(C)C(=O)C3N2N2CCCCC2)c2ccccc12 (stereo not drawn) ?
Result: no (0)

Q: composite z-score >= 1 for `CCCC[C@H]1OB(O)C[C@H]2C1=C(COc1ccccc1)C[C@H]1C(=O)N(C)C(=O)[C@H]12` ?
Result: no (0)

Q: composite z-score >= 1 for COC(=O)C=C(CC(O)c1cccc(Cl)c1)OC (stereo not drawn) ?
Result: no (0)

Q: composite z-score >= 1 for `COCCOC(=O)N1C(=O)[C@@]2(c3cc(C#CC4=CCCCC4)ccc31)[C@H](c1ccc(O)cc1)N1[C@H](c3ccccc3)[C@H](c3ccccc3)OC(=O)[C@H]1[C@@H]2C(N)=O` ?
Result: yes (1)

Q: composite z-score >= 1 for `COCCCN1C(=O)[C@@]2(Cc3ccccc31)c1ccccc1C(=O)N(Cc1ccccc1C(F)(F)F)[C@H]2c1ccc(CO)cc1` ?
Result: no (0)

Q: composite z-score >= 1 for `COC(=O)C(CC#Cc1ccc2c(c1)[C@]1(C(=O)N2)[C@H](c2ccc(O)cc2)N2[C@H](c3ccccc3)[C@H](c3ccccc3)OC(=O)[C@H]2[C@@H]1C(=O)Nc1nc2ccccc2s1)C(=O)OC` ?
Result: yes (1)

Q: composite z-score >= 1 for `COc1ccc(C(=O)Nc2ccc(CN3C(=O)[C@@]4(O[C@@H](CCn5cc([C@H](O)c6ccccc6)nn5)[C@H]([Si](C)(C)c5ccc(OC)cc5)[C@H]4C)c4ccccc43)cc2)cc1` ?
Result: yes (1)

Q: composite z-score >= 1 for `O=C1O[C@H](c2ccccc2)[C@H](c2ccccc2)N2[C@H]1[C@@H](C(=O)N1CCN(c3ncccn3)CC1)[C@]1(C(=O)Nc3ccc(C#CC4=CCCCC4)cc31)[C@H]2c1ccc(O)cc1` ?
Result: yes (1)

Q: composite z-score >= 1 for COc1ccc(C(O)C2C=CC3C(=O)NC(=O)C3N2Nc2ccccn2)cc1 (stereo not drawn) ?
Result: no (0)

Q: composite z-score >= 1 for CCCCCN1CC=CC23O[C@@H]4/C=C\CCCOC(=O)C4[C@H]2C(=O)N(CCCO)[C@@H]3C1=O (stereo partly drawn) ?
Result: no (0)

Q: composite z-score >= 1 for `CC(=O)NCCCC[C@@H]1NC(=O)[C@@H]2C[C@H](C(=O)NCCCCCCNC(=O)CS)[C@H](c3cccc(OCCO)c3)N2C1=O` ?
Result: yes (1)

Q: composite z-score >= 1 for `CN(C)CCCC[C@@H]1NC(=O)[C@H]2C[C@@H](C(=O)NCCCCCNC(=O)CS)[C@@H](c3cccc(OCCO)c3)N2C1=O` ?
Result: yes (1)

Q: composite z-score >= 1 for O=C1NC(=O)C2C1C=CC(C(O)c1ccccc1)N2Nc1ccc(Cl)cc1Cl (stereo not drawn) ?
Result: yes (1)

Q: composite z-score >= 1 for `C=CCOC(=O)[C@H]1[C@@H]2C(=O)O[C@@H](c3ccccc3)[C@@H](c3ccccc3)N2[C@@H](c2ccc(OCCOC(=O)[C@@H]3C[C@@H]4C(=O)N[C@@H](CCCC[N+](C)(C)C)C(=O)N4[C@@H]3c3ccc(O)cc3)cc2)[C@]12C(=O)Nc1ccccc12` ?
Result: yes (1)

Q: composite z-score >= 1 for `COCCOC(=O)N1C(=O)[C@@]2(c3cc(C#Cc4ccc(OC)cc4)ccc31)[C@H](C(N)=O)[C@H]1C(=O)O[C@H](c3ccccc3)[C@H](c3ccccc3)N1[C@@H]2c1ccccc1OCCO` ?
Result: yes (1)

Q: composite z-score >= 1 for `COCCCNC(=O)[C@@]1(Cc2ccccc2N=[N+]=[N-])N=C(c2ccc(OCCCO)cc2)O[C@H]1c1ccccc1N=[N+]=[N-]` ?
Result: no (0)

Q: composite z-score >= 1 for Cc1ccc(C(C)CC(O)C2C=CC3C(=O)N(c4ccccc4)C(=O)C3N2Nc2ccc([N+](=O)[O-])cc2)o1 (stereo not drawn) ?
Result: no (0)

Q: composite z-score >= 1 for `C#CCN(CC=C(C)C)[C@H](CO)c1ccccc1` ?
Result: no (0)

Q: composite z-score >= 1 for `CCCCc1cn(C[C@H](Cc2ccccc2)NC(=O)N[C@H](CO)CCc2oc(C(C)=O)c(C(=O)OC)c2C(=O)OC)nn1` ?
Result: yes (1)

Q: composite z-score >= 1 for `CCOC(=O)C[C@H]1[C@H](OC(=O)Cc2ccc3c(c2)OCO3)[C@@H](NC(=O)c2ccc(-c3ccccc3)cc2)c2cc(OCCCO)ccc2N1C(=O)Cc1ccc(OC)cc1` ?
Result: no (0)

Q: composite z-score >= 1 for `O=C(NCc1ccc(F)cc1)[C@H]1C[C@H]2C(=O)N[C@@H](Cc3ccccc3)C(=O)N2[C@H]1c1ccc(O)cc1` ?
Result: yes (1)

Q: composite z-score >= 1 for O=C1OCCC/C=C\[C@H]2OC34C=CCN(CCN5CCOCC5)C(=O)[C@H]3N(CCCO)C(=O)[C@@H]4C12 (stereo partly drawn) ?
Result: no (0)

Q: composite z-score >= 1 for `C=CC[C@]12N=C(c3ccc(OCCCO)cc3)O[C@H]1c1ccccc1N(Cc1ccccc1)C2=O` ?
Result: no (0)

Q: composite z-score >= 1 for `C=C(COC)/C(=C/C[C@@H](OC(C)=O)c1ccc(CO)o1)c1cnc2ccccc2c1` ?
Result: yes (1)
